Reported Fold Reduction in binding affinity compared to PP WT (Kd) is given for each of the following binders.
# target entity: T1, human CD7 (human, UniProt P09564 26-180, limits assumed)
# T1 construct: The construct is not described
# T1 sequence (looked up): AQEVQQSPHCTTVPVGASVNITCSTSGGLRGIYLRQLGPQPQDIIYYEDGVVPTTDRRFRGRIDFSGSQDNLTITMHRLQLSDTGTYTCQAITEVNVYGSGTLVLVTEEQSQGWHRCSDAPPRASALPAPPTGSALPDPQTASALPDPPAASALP
# test details: SPR; reference 7-PP-1 WT
A number alone suffices; assume fold.

Examples with their reported Fold Reduction in binding affinity compared to PP WT (Kd) follow.
Answer with reported Fold Reduction in binding affinity compared to PP WT (Kd) of CD7-PP-2 CD7 binding arm (Fab, V domains shown, Heavy chain Arg57Gly) VH: QVQLQESGAELVKPGASVKLSCKASGYTFTSYWMHWVKQRPGQGLEWIGKINPSNGGTNYNEKFKSKATLTVDKSSSTAYMQLSSLTSEDSAVYYCARGGVYYDLYYYALDYWGQGTTVTVSS VL: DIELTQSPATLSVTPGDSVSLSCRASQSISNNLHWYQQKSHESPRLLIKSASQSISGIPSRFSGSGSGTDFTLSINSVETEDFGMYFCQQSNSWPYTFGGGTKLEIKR
21.3

Answer with reported Fold Reduction in binding affinity compared to PP WT (Kd) of CD7-PP-12 CD7 binding arm (Fab, V domains shown, Light chain Gln27Ala) VH: QVQLQESGAELVKPGASVKLSCKASGYTFTSYWMHWVKQRPGQGLEWIGKINPSNGRTNYNEKFKSKATLTVDKSSSTAYMQLSSLTSEDSAVYYCARGGVYYDLYYYALDYWGQGTTVTVSS VL: DIELTQSPATLSVTPGDSVSLSCRASASISNNLHWYQQKSHESPRLLIKSASQSISGIPSRFSGSGSGTDFTLSINSVETEDFGMYFCQQSNSWPYTFGGGTKLEIKR
1.53

Answer with reported Fold Reduction in binding affinity compared to PP WT (Kd) of CD7-PP-6 binding arm (Fab, V domains shown, Heavy chain Asp104Ala) VH: QVQLQESGAELVKPGASVKLSCKASGYTFTSYWMHWVKQRPGQGLEWIGKINPSNGRTNYNEKFKSKATLTVDKSSSTAYMQLSSLTSEDSAVYYCARGGVYYALYYYALDYWGQGTTVTVSS VL: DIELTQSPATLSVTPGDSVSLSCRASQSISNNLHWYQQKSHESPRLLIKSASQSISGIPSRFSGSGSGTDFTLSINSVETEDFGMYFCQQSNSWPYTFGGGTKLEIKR
12.7

***
Answer with reported Fold Reduction in binding affinity compared to PP WT (Kd) of CD7-PP-13 CD7 binding arm (Fab, V domains shown, Heavy chain CDR3 Tyr108Ala; also called 7-PP-13 (mut_17-AA-1)) VH: QVQLQESGAELVKPGASVKLSCKASGYTFTSYWMHWVKQRPGQGLEWIGKINPSNGRTNYNEKFKSKATLTVDKSSSTAYMQLSSLTSEDSAVYYCARGGVYYDLYYAALDYWGQGTTVTVSS VL: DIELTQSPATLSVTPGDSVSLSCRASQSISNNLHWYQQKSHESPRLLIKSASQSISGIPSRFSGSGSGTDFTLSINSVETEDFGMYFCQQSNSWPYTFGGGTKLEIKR
20.3

Answer with reported Fold Reduction in binding affinity compared to PP WT (Kd) of CD7-PP-8 CD7 binding arm (Fab, V domains shown) VH: QVQLQESGAELVKPGASVKLSCKASGYTFTSYWMHWVKQRPGQGLEWIGKINPSNGKTNYNEKFKSKATLTVDKSSSTAYMQLSSLTSEDSAVYYCARGGVYYDLYYAALDYWGQGTTVTVSS VL: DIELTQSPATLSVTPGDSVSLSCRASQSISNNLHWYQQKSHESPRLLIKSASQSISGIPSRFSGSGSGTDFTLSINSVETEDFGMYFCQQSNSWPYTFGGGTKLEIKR
64.3
